Test system: MS2 coat protein
Experimental Protocol: apparent KD of MS2 coat protein; designed switch direction (-1 OFF switch, 1 ON switch): -1; higher = weaker reporter binding
Study Conditions: Eterna round: R95; input ligand: none
Assay Metric: apparent KD of MS2 coat protein (nM)
Just the number in nM, nothing appended.

Worked set:
{"Sequence": "ACACAAGCCCUUUGCUCGUUUUAAUACAGCGGGCUCUUCACAUGAGGAUCACCCAUGUAGGCCUUGUUCCAAGGCCG [Rebileve] (puzzle: Sensor v3, turn-off variant 2)", "Reported Measurement": 20}
{"Sequence": "AGUACUGACACGUUGGUGUUAGUACAAUAAGCUUGUGAUACAUGAGGAUCACCCAUGUCCUCAUAAGCUCGUCUUAU [salish99_TOv2_r2_093] (puzzle: Sensor v3, turn-off variant 2)", "Reported Measurement": 21.1}

Annotate the sequence ACCGAACAUGAGGAUCACCCAUGUGAGGAUAUCCCGAGAUUAAAUGCCGCAAGAAGGCGGAGAAGGCGCAUGGG [Ditiesre] (puzzle: Exclusion 1) with its measured apparent KD of MS2 coat protein.
31.3

Annotate the sequence AUUUUAAUAUAGGAUAUCGAAAUAAUUAUUUAACGAGAAGGAUGAACAUGAGGAUCACCCAUGUGGUAUCAUGG [Mat - Exclusion 6 - JL Mod - D32] (puzzle: Exclusion 6) with its measured apparent KD of MS2 coat protein.
163

Annotate the sequence AUUUAACAUGAGGAUCACCCAUGUGAGGAUAUGUAAAUUUUAAACAAAUAGGAAAUGAACAGAAGGCACACCGG [JR_Exclusion1_Sub006] (puzzle: Exclusion 1) with its measured apparent KD of MS2 coat protein.
37

Annotate the sequence CUGGUCCGAGGAUAUAUGAUGUGAAACAUGAGGAUCACCCAUGUAAUAUUAUGGAUGUAAAUAGAAGGCGGACUAG [JL-ex5-3.08] (puzzle: Exclusion 5) with its measured apparent KD of MS2 coat protein.
74.2

Annotate the sequence GAGUGACAUGAGGAUCACCCAUGUGAGGAUAUGCGAUGGACCAAAUUAACAAUAGAAGGCAGAAGGCGCAUAAA [Exclusion 1 V9] (puzzle: Exclusion 1) with its measured apparent KD of MS2 coat protein.
41.1

Annotate the sequence AGUACUAACACGCUUGUGUUAGUACAAUAAGCUUGUGAAACAUGAGGAUCACCCAUGUCCUCAUAAGCUCGUCUUAU [salish99_TOv2_r3_072] (puzzle: Sensor v3, turn-off variant 2) with its measured apparent KD of MS2 coat protein.
15.9

Annotate the sequence AAGAGUGCAGGAUAUACUUGUUAGGACGGUUGGAUGAAUGGACAUGAGGAUCACCCAUGUAGAAGGGCAGAGAG [JR_Exclu2_Sub051] (puzzle: Exclusion 2) with its measured apparent KD of MS2 coat protein.
41.3

Annotate the sequence GAAAAGGUAGGAUAUACGAAAAAGAAGGGUAGAAAAAAAACACAUGAGGAUCACCCAUGUAGAAGGACCAAAAG [salish99_ex2_r3_026] (puzzle: Exclusion 2) with its measured apparent KD of MS2 coat protein.
21

Annotate the sequence GAGAAACAUGAGGAUCACCCAUGUGAGGAUAUGCGUACGUUGUCCGUAGGCGACGUGCGCAGAAGGCGCAAAAG [Mat - Mod of JL D87] (puzzle: Exclusion 1) with its measured apparent KD of MS2 coat protein.
96
